Test system: 454973-116-R2-J3-PDC complex spheroid viability;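 further: spheroids exposed to drugs for seven days before measurement; percent viability relative to DMSO vehicle control wells taken as 100%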
measurement-notes: Anticancer human tumor 454973-116-R2-J3-PDC patient-derived pancreatic carcinoma cell line growth inhibition [POLQ]
experimental-setup: second compound 0.316 µM; first compound 0.1 µM; stronger effect = lower value
Attribute: viability, T/C
measurement-kind: viability, T/C

{"molecule": "O=c1[nH]cc(F)c(=O)[nH]1 + Cc1cccc(N(C)C(=O)C2C(O)CCN2c2nc(C)cc(C(F)(F)F)c2C#N)c1", "measurement-kind": "viability, T/C", "reading": "115%"}
{"molecule": "COc1cccc(OCCCN)c1-c1cc(Nc2cnc(C#N)cn2)n[nH]1 + Cc1cccc(N(C)C(=O)C2C(O)CCN2c2nc(C)cc(C(F)(F)F)c2C#N)c1", "measurement-kind": "viability, T/C", "reading": "6.6%"}
{"molecule": "COc1cc2cc(C(=O)CCC(=O)O)sc2cc1OC + COC1C(OC(N)=O)C(O)C(Oc2ccc3c(O)c(NC(=O)c4ccc(O)c(CC=C(C)C)c4)c(=O)oc3c2C)OC1(C)C", "measurement-kind": "viability, T/C", "reading": "110%"}
{"molecule": "CCc1cc2c(N3CCc4c(cc(Cn5ccnc5)cc4-c4cn(C)nc4C(F)(F)F)C3=O)ccnc2c(OC)n1 + COC1C(OC(N)=O)C(O)C(Oc2ccc3c(O)c(NC(=O)c4ccc(O)c(CC=C(C)C)c4)c(=O)oc3c2C)OC1(C)C", "measurement-kind": "viability, T/C", "reading": "104%"}
{"molecule": "C=CC(=O)N1CCN(c2nc(=O)n(-c3c(C)ccnc3C(C)C)c3nc(-c4c(O)cccc4F)c(F)cc23)C(C)C1 (stereo not given) + COC1C(OC(N)=O)C(O)C(Oc2ccc3c(O)c(NC(=O)c4ccc(O)c(CC=C(C)C)c4)c(=O)oc3c2C)OC1(C)C", "measurement-kind": "viability, T/C", "reading": "107%"}
